Data origin: paper PMC10464304

- TGT: T1, GST-hUHRF1-TTD (126-280) F278A (human, UniProt Q96T88 126-280, F278A)
- T1 construct: Tandem Tudor domain (TTD) of human UHRF1, UniProt Q96T88, residues 126-280; source: E. coli, purified (Glutathione Agarose 4B); not shown: GST, N-terminal, kept
- T1 sequence (looked up): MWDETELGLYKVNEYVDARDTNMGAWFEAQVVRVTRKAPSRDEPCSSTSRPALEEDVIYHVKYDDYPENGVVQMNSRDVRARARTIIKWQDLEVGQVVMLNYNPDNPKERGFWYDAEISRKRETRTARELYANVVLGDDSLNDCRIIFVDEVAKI
- RUN DESCRIPTION: fluorescence polarisation; fluorescence anisotropy titration; 100 nM FITC-labeled peptide in the cuvette, protein added stepwise; 23°C; 100 mM KCl, 20 mM HEPES pH 7.5, 10% v/v glycerol
- TEST SETTINGS: both partners purified
pKd: −log10 of the molar value. No end group written: not given here. Me3 = trimethyl (trimethyl-lysine)
ASSAY READOUT: pKd

BINDER	VALUE REPORTED
ARTK(Me)QTARK(Me3)STGGKAPRKQ (peptide, UniProt P68431 2-20, looked up, also: FITC-labeled (position not given here), histone H3 N-terminal tail, residues 1-19; also called H3K4me1-K9me3; H3 K4me1-K9me3) [FITC-labeled H3(1-19) peptide with K4me1 and K9me3]	5.41
